system: MIWI (PIWIL1) piRISC loaded with L1MC piRNA (30 nt); assay: pre-steady-state target cleavage rate (min^-1); higher = faster piRNA-guided slicing of the target; settings: guide: L1MC piRNA 5'p-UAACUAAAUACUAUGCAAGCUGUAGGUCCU; auxiliary factor: 500 nM mouse GTSF1;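 also: 1 nM active piRISC with 0.1 nM target library at 33 °C single turnover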
The full ranking holds about 8,200 sequences; the median of “pre-steady-state target cleavage rate” is about 0.024, and the highest 2% start at about 1.3. The sample as a whole holds a higher share of the highest values than the screen did.
For each entry below, report its pre-steady-state target cleavage rate value.
One number for each entry.

Guide cases for pre-steady-state target cleavage rate, answers given:
Suppose we examine the sequence "UCGACCUUCAGCUUGCAUAGUAUUUAGUUA" ; what pre-steady-state target cleavage rate value has been reported?
1.51

Suppose we examine the sequence "UCCUGGAACAGCUUGCACAGUAUUUAGUUA" ; what pre-steady-state target cleavage rate value has been reported?
1.01

Suppose we examine the sequence "UCCUGGAUCACCAUGCAUAGUAUUUAGUUA" ; what pre-steady-state target cleavage rate value has been reported?
0.0303

Hi there! I need pre-steady-state target cleavage rate for each item below, if you can.
1. UCCUGGAACAGCUUGCAUAGUAUUCUAGUUA
2. UCCACCAACAGCAUGCAUAGUAUUUAGUUA
3. UCCUGGUACAGCUUGCAAAGUAUUAAGUUA
4. UCCUCCUUCAGCUUGCUUAGUAUUUAGUUA
5. UCCUGGAACAGCUUGCAUAGUUUUUAGUAA
6. UCCAGGAACAGCUUGCAUAGUAUUUACAAA
7. UCCUGGAACAUGCUUGCAUAGUAUUUAGUUA

0.285
0.943
0.35
1.31
0.191
0.328
0.696

Hi there! I need pre-steady-state target cleavage rate for each item below, if you can.
1. UCCUGGAAACAGCUUGCAUAGUAUUUAGUUA
2. UCCUGCUACAGCUUGCGUAGUAUUUAGUUA

1.34
0.806

Hi there! I need pre-steady-state target cleavage rate for each item below, if you can.
1. UCCACCUACAGCUUGCAUAGUUUUUUCAAA
2. UCGACCUACAGCAUUGCAUAGUAUUUAGUUA
3. UCCUGGAACAGCUUGCAUAGUAUUUUAGUUA

1. 0.144
2. 1.19
3. 0.875

* * *

For each entry below, report its pre-steady-state target cleavage rate value.
tested on: MIWI (PIWIL1) piRISC loaded with L1MC piRNA (30 nt); test: pre-steady-state target cleavage rate (min^-1); higher = faster piRNA-guided slicing of the target; conditions: guide: L1MC piRNA 5'p-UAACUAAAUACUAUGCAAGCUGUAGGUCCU; auxiliary factor: 500 nM mouse GTSF1;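 also: 1 nM active piRISC with 0.1 nM target library at 33 °C single turnover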
In all, about 8,200 sequences were measured (“pre-steady-state target cleavage rate”: median about 0.024, highest 2% from about 1.3 on). The list comes from a sample in which the highest values are over-represented; it also holds close analogues and randomly drawn sequences.

Guide cases for pre-steady-state target cleavage rate, answers given:
Suppose we examine the sequence "UCCUGGAACAGCUUGCAUAGUUUAUAGUUA" ; what pre-steady-state target cleavage rate value has been reported?
0.0662

Suppose we examine the sequence "UCCUGGUACAGCUAGCAUAGUAAUUAGUUA" ; what pre-steady-state target cleavage rate value has been reported?
0.379

Suppose we examine the sequence "AGGUGGUACAGCUUGCAUAGUAUUUAGUUA" ; what pre-steady-state target cleavage rate value has been reported?
1.36

Suppose we examine the sequence "UCGACCAACAGCUAGCAUAGUAUUUAGUUA" ; what pre-steady-state target cleavage rate value has been reported?
1.08

Suppose we examine the sequence "UCCUGCUAGAGCUUGCAUACUAUUUAGUUA" ; what pre-steady-state target cleavage rate value has been reported?
0.248

Suppose we examine the sequence "UGGUGGUACAGCUUGCAUAGUAUUUAGUUA" ; what pre-steady-state target cleavage rate value has been reported?
1.3

Hi there! I need pre-steady-state target cleavage rate for each item below, if you can.
1. UCCUCCUACAGCUUGCAUUGUAUUUAGUUA
2. UCCUGGAUCAGCUUGCAUAGAAUUUAGUUA
3. UCCUGGUUCAGCUUGCAUUGUAUUUAGUUA
4. AGGAGGUACAGCUUGCAUAGUAUUUAGAAA
5. UCCUGGAACUCGUUGCAUAGUAUUUAGUAA
6. AGGACCUACAGCUUGCAUAGUAUUAGUUA
7. AGGACCAACAGCUUGCAUAGUAUUUAGUAA
8. GGGACCUACAGCUUGCAUAGUAUUUAGUUA

0.952
0.258
0.61
0.324
0.071
0.385
0.974
1.32

Hi there! I need pre-steady-state target cleavage rate for each item below, if you can.
1. AGGACCUUCAGCUUGCAUAGUAUAUAGUUA
2. UCCUGGAUGACGCUUGCAUAGUAUUUAGUUA
3. UCCUGGAUGAGCUUGCAUAGUAUAUACAAA
4. UCCUGGAUGUCGAUGCUUAGUAUUUUGUUA

1: 0.827; 2: 0.911; 3: 0.00918; 4: < 0.0001

Hi there! I need pre-steady-state target cleavage rate for each item below, if you can.
1. UCCACCUACAGCUUGCAUAGUAUAAUCAAA
2. UGGACCAACAGCUUGCAUAGUAUUUAGUUA
3. UCCUGGAUCAACUUGCAUAGUAUUUAGUUA
4. UGGAGGUACAGCUUGCAUAGUAUUUAGUUA
5. UAGACCUACAGCUUGCAUAGUAUUUAGUUA
6. AGGAGGUACAGCUUGCAUAGUAUUUAGUUA

[0.327, 1.35, 1.01, 1.35, 1.31, 1.5]

Hi there! I need pre-steady-state target cleavage rate for each item below, if you can.
1. AGGAGGUACAGCUUGCAUAGUAUUUAGUAA
2. UCCUCCUACAGCUUGCAAAGUUUUUAGUUA
3. UCCUGGAUGAGCUUGCAUAGUAUUCUAGUUA
4. UCCUCCUACUGCUUGCAUAGUAUUUAGAUA
5. UGGAGGUACAGCUUGCAUAGUAUUUAGUAA
6. UCCUGGAUGUCGAACGAUAGUAUUUAGUUUA

[0.803, 0.352, 0.28, 0.185, 0.794, "< 0.0001"]

Hi there! I need pre-steady-state target cleavage rate for each item below, if you can.
1. AGGACCUACAGCUUGCAUAGUAUUUUAGUUA
2. AGGACCUACAGCUUGCAUAGUAUUUAGUUUA

1. 1.08
2. 1.27

Hi there! I need pre-steady-state target cleavage rate for each item below, if you can.
1. UCGACCUACAGCUUGCAUAGUUAAUAGUUA
2. UCCUCCUACAGCUUGCAUUGUAUUAAGUUA
3. UCCACCAACAGCUUCCAUAGUAUUUAGUUA
4. AGGACCUAAGCUUGCAUAGUAUUUAGUUA
5. UCCACCUACAGCUUGCAUAUUAUUUAGUUA
6. UCGAGGUACAGCUUGCAUAGUAUUUAGUUA
7. UCCUGCUACAGCUUGCAUAGUAUAAUGUAA

1: 0.122; 2: 0.309; 3: 0.0426; 4: 1.05; 5: 1.01; 6: 1.04; 7: 0.188

Hi there! I need pre-steady-state target cleavage rate for each item below, if you can.
1. AGGACCAACAGCUUGCAUAGUAUUUAGAAA
2. UGGACCAACAGCUUGCAUAGUAUUUAGAUA

[0.624, 0.428]

Hi there! I need pre-steady-state target cleavage rate for each item below, if you can.
1. UGGACCAACAGCUAGCAUAGUAUUUAGUUA
2. UCGGACCUACAGCUUGCAUAGUAUUUAGUUA
3. AAGGACCUACAGCUUGCAUAGUAUUUAGUUA
4. UCCACCUACAGGUUGCAUAGUAUUUAGUAA
5. UCGUGGUACAGCUUGCAUAGUAUUUAGAAA

[1.36, 1.37, 1.29, 0.866, 0.305]

* * *

system: MIWI (PIWIL1) piRISC loaded with L1MC piRNA (30 nt); experiment: pre-steady-state target cleavage rate (min^-1); MIWI and MILI are mouse PIWI proteins and EfPiwi is from a freshwater sponge; tags in brackets are library labels; higher = faster piRNA-guided slicing of the target; details: guide: L1MC piRNA 5'p-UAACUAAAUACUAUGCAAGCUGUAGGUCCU; auxiliary factor: 500 nM mouse GTSF1;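 also: 1 nM active piRISC with 0.1 nM target library at 33 °C single turnover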
In all, about 8,200 sequences were measured (“pre-steady-state target cleavage rate”: median about 0.024, highest 2% from about 1.3 on). The sample holds the highest values, similar sequences and a random draw of the others, so the mix is not that of the screen.
VALUE KIND: pre-steady-state target cleavage rate

Suppose we examine the sequence "UCGACCUACAGCUUGCAUUGUAUUUACUUA" ; what pre-steady-state target cleavage rate value has been reported?
0.49

Suppose we examine the sequence "UCCUCCUACAGCUAGCAUAGUAUUUAGUUA" ; what pre-steady-state target cleavage rate value has been reported?
0.838

Suppose we examine the sequence "UCGACCUACGAGCUUGCAUAGUAUUUAGUUA" ; what pre-steady-state target cleavage rate value has been reported?
0.737

Suppose we examine the sequence "UCCUGCUACAGCUAGCAUAGUAUUUACAAA" ; what pre-steady-state target cleavage rate value has been reported?
0.234

Suppose we examine the sequence "UCCUCCUAUCAGCUUGCAUAGUAUUUAGUUA" ; what pre-steady-state target cleavage rate value has been reported?
1.49

Hi there! I need pre-steady-state target cleavage rate for each item below, if you can.
1. UCGACCUAUAGCUUGCAUAGUAUUUAGUUA
2. UCCUGGAACACCUUGGAUAGUAUUUAGUUA
3. UCCUGCUACAGCUUGCAUAGUCAUUUAGUUA
4. AGGACCUACGGCUUGCAUAGUAUUUAGUUA
5. AGGACCUACAUGCUUGCAUAGUAUUUAGUUA
6. UCGACCUAUCAGCUUGCAUAGUAUUUAGUUA
7. UCCUCCAACAGCUUGCAAAGUAUUUAGUUA

[1.04, 0.286, 0.0744, 1.27, 0.767, 1.61, 1.16]

Hi there! I need pre-steady-state target cleavage rate for each item below, if you can.
1. UCCACCUACAGCUUGCAUAGUAAAUACAAA
2. AGUACCUACAGCUUGCAUAGUAUUUAGUUA
3. UCCUGGUUCAGCUUGCAUAGUAUUUAGUAA
4. UGGACCUACCGCUUGCAUAGUAUUUAGUUA
5. AGGUCCUACAGCUUGCAUAGUAUUAAGUUA
6. UCCACCUACGGCUUGCAUAGUAUUUAGUUA
7. UGGACCUACGGCUUGCAUAGUAUUUAGUUA
8. UCCUGCAACAGCUUGCAUAGUAUUUAGUAA

0.155
1.23
0.528
1.57
0.381
0.921
1.44
1.22

Hi there! I need pre-steady-state target cleavage rate for each item below, if you can.
1. UCCAGCUACAGCUUGCAUAGUAAUUAGUUA
2. AGGACCUAUCAGCUUGCAUAGUAUUUAGUUA
3. UCCACCUUACAGCUUGCAUAGUAUUUAGUUA

[0.475, 1.25, 1.03]
